biological target: T1, SH2 domain of Crkl protein (residues 1-111), wild type (UniProt P46109 1-111); experiment: stopped-flow fluorescence kinetics (FRET); dansyl-Pax112-123 constant at 2 μM mixed with Crkl-SH2 2 to 10 μM (pseudo-first-order, kon); koff by displacement of the preincubated 2 µM complex with excess non-dansylated Pax112-123 (30 μM); 283 K; 50 mM BisTRIS pH 6.8, 0.5 M NaCl; conditions: both partners purified
T1 construct: Crkl adaptor protein, SH2 domain, residues 1-111; Subcloned in pET28b+; all experiments were done on the N-terminally His-tagged protein; also called Crkl-SH2; Crkl SH2 domain; source: E. coli BL21 (DE3), purified (HisTrap nickel column, desalting); not shown: His tag, N-terminal, kept
T1 sequence (P46109 1-111): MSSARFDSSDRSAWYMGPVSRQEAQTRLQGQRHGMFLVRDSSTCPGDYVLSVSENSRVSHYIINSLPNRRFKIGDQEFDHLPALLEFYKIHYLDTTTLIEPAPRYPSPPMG
Square brackets hold non-standard residues; d marks the D form. Ends that are not written are not given here. * marks the point of attachment. pY = N[C@@H](Cc1ccc(OP(=O)(O)O)cc1)C(=O)O; Dansyl = CN(C)c1cccc2c(S(=O)(=O)*)cccc12
test.readout: Kd (nM)
# unit: nM | format: bare number

Reported Kd ( Dansyl-GEEEHV[pY]SFPNK (The dansyl group is the FRET acceptor of Trp14 of the SH2 domain; source: synthetic peptide, bought: GenScript) [dansylated Pax_(112–123) peptide (Dans-GEEEHV-pY-SFPNK)] ) = 2400
